Sourced from patent EP0745595A1

The molecules listed here are annotated with their ORYSAT herbicidal rating (rice tolerance).
test system: ORYZA SATIVA, L. TEBONNET; assay: Rice tolerance to post-transplant applications under flooded paddy conditions, ORYSAT (Rice, Tebonnet); assay type: in vivo; conditions: post-transplant rice, Rate 0.500 kg/ha, rated three to four weeks after treatment;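 further: applied to flooded soil surface three days after transplanting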
# answer = number (no unit)

Requested read-out: ORYSAT herbicidal rating (rice tolerance). Entry: COC(=O)C(C)n1c(=O)n(C)c(=O)n(-c2cc(Oc3c(F)cc(C(F)(F)F)cc3Cl)ccc2Br)c1=O (stereo not shown)
3.0

Value lookup for ORYSAT herbicidal rating (rice tolerance); key = "COC(=O)Cn1c(=O)n(C)c(=O)n(-c2cc(Oc3c(F)cc(C(F)(F)F)cc3Cl)ccc2Br)c1=O"
6.7

Which ORYSAT herbicidal rating (rice tolerance) is listed for "C#CCn1c(=O)n(CC(=O)OCC)c(=O)n(-c2cc(Oc3ccc(C(F)(F)F)cc3Cl)ccc2[N+](=O)[O-])c1=O" ?
1.0

What does the record list as ORYSAT herbicidal rating (rice tolerance) for "CCOC(=O)Cn1c(=O)[nH]c(=O)n(-c2cc(Oc3ccc(C(F)(F)F)cc3Cl)ccc2[N+](=O)[O-])c1=O" ?
5.3
